B1: 6YSE (parent)
chain: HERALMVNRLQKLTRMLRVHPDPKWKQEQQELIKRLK

Variants of: B1
method.description: folding stability dG (cDNA display proteolysis); higher = more stable
condition.summary: PBS, room temperature
Given measured folding stability dG, output Satisfied if it is greater than or equal to 0.9 kcal/mol and Not satisfied if not.

change	class
P23R	Not satisfied
Q30G	Not satisfied
N8T	Satisfied
K24E	Satisfied
M6W	Not satisfied
I33H	Not satisfied
K37D	Not satisfied
V7H	Satisfied
N8S	Satisfied
W25N	Not satisfied
H20A	Satisfied
K12W	Satisfied
M16H	Not satisfied
P23Q	Not satisfied
Q29Y	Satisfied
Q11W	Satisfied
T14S	Satisfied
M6N	Not satisfied
N8L	Satisfied
P21I	Not satisfied
P21E	Satisfied
K34F	Satisfied
P23H	Not satisfied
Q29T	Not satisfied
K24M	Satisfied
E2P	Not satisfied
R15Q	Satisfied
L5P	Not satisfied
T14G	Not satisfied
D22H	Satisfied
A4T	Satisfied
K24R	Satisfied
Q29S	Not satisfied
E28W	Not satisfied
K34M	Satisfied
Q27D	Satisfied
V7I	Satisfied
A4Y	Satisfied
R9A	Not satisfied
H20R	Satisfied
E31M	Satisfied
H1E	Satisfied
A4V	Satisfied
H1K	Satisfied
P23G	Not satisfied
R9K	Not satisfied
D22F	Satisfied
L17V	Not satisfied
K34G	Not satisfied
H1R	Satisfied
K12T	Satisfied
D22I	Not satisfied
E31Y	Satisfied
A4D	Satisfied
V19Y	Satisfied
E2G	Not satisfied
R18D	Not satisfied
E2N	Satisfied
Q27L	Satisfied
V19N	Satisfied
Q27E	Satisfied
R3W	Satisfied
Q30D	Not satisfied
Q30E	Satisfied
M6S	Not satisfied
H20I	Satisfied
